# Tested on: VchCAST RNA-guided transposition machinery (E. coli BL21(DE3) host, lacZ target)
# assay: relative integration efficiency (T-RL orientation) vs wild-type transposon end (log2 (normalized fold change)); transposon end mutated: right end (5 bp flank + 75 bp right end); higher = more efficient transposition
Item-by-item account of relative integration efficiency (log2)
# answer = number (no unit)

Below, each entry is followed by its recorded relative integration efficiency (log2) result.
{"columns": ["polymerSequence", "reading"],
 "data": [
  ["ACATTTGTTGATACAACCATAAAATGATAATTACACCCATAAATTGATAATTATCACACCCATAAATTGATATTGCCTCTGTACGATCCAGTGATCTCCAAGACGCTGCAAGAGTCCGCACCGACAC", 0.0556],
  ["ACATTTGTTGATACAACCATAAAATGATAATTACACCCATAAATTGATAATTATGTCACCCATAAATTGATATTGCCTCTGATCATAGTCAGACCAACATTGCTACGACCCGTATTCGCACCGACAC", -0.72]
]}

Attention now turns to another entry.
Please supply the value of reported relative integration efficiency (log2) for the item ACATTTCTCGATACAACCATAAAATGATAATTACACCCATAAATTGATAATTATCACACCCAATTTAACTATAACGCTCTGATCATAGTCAGACCAACATTGCTACGACCCGTATTCGCACCGACAC -1.57
